Tested on: HCI-023 (organoid from a triple-negative breast cancer xenograft)
Test: CTG-3D luminescence at 96 h relative to day-0 seeding control (ratio to day 0); higher = more growth / less cytotoxicity; PDxO 3D drug screen, 96 h, CTG-3D normalised to day-0 seeding control.
Conditions: 625 fM; days in culture: 111
Field: CTG-3D luminescence at 96 h. Provide a value for each of the compounds that follow.

Consider the following illustrative entries.
O=C(c1ccc(F)c(F)c1Nc1ccc(I)cc1F)N1CC(O)([C@@H]2CCCCN2)C1 = 1.06
COc1cccc2c1C(=O)c1c(O)c3c(c(O)c1C2=O)C[C@@](O)(C(=O)CO)C[C@@H]3O[C@H]1C[C@H](N)[C@H](O)[C@H](C)O1 = 1.45

Given COc1cc2c(Oc3ccc4[nH]c(C)cc4c3F)ncnc2cc1OCCCN1CCCC1 , state its recorded CTG-3D luminescence at 96 h.
1.41

###

Field: CTG-3D luminescence at 96 h. Provide a value for each of the compounds that follow.
System: HCI-024 (organoid from a breast cancer xenograft)
Experiment: CTG-3D luminescence at 96 h relative to day-0 seeding control (ratio to day 0); higher = more growth / less cytotoxicity; PDxO 3D drug screen, 96 h, CTG-3D normalised to day-0 seeding control.
Details: 100 µM; days in culture: 105

Consider the following illustrative entries.
C[C@H](NC(=O)CCC(F)(F)F)C(=O)N[C@@H]1C(=O)N(CCO)c2ncccc2-c2ccccc21 = 1.62
NC(=O)Nc1cc(-c2cccc(F)c2)sc1C(=O)N[C@H]1CCCNC1 = 0.00249
CC(C)n1nc(-c2ccc3oc(N)nc3c2)c2c(N)ncnc21 = 0.243

As a next step, examine the compound that follows.
Given the entry C=CCn1c(=O)c2cnc(Nc3ccc(N4CCN(C)CC4)cc3)nc2n1-c1cccc(C(C)(C)O)n1 , what CTG-3D luminescence at 96 h was observed with HCI-024?
0.179

###

Field: CTG-3D luminescence at 96 h. Provide a value for each of the compounds that follow.
Tested on: HCI-002 (organoid from a triple-negative breast cancer xenograft)
Experiment: CTG-3D luminescence at 96 h relative to day-0 seeding control (ratio to day 0); higher = more growth / less cytotoxicity; PDxO 3D drug screen (set 2), 96 h, CTG-3D normalised to day-0 seeding control.
Details: 0.005 µM; days in culture: 127
Answers are plain numbers.

COc1cccc2c1C(=O)c1c(O)c3c(c(O)c1C2=O)C[C@@](O)(C(=O)CO)C[C@@H]3O[C@H]1C[C@H](N)[C@@H](O)[C@H](C)O1 [epirubicin] = 2.65
O=C(c1cc(Cc2n[nH]c(=O)c3ccccc23)ccc1F)N1CCN(C(=O)C2CC2)CC1 = 2.92
CC(=O)c1c(C)c2cnc(Nc3ccc(N4CCNCC4)cn3)nc2n(C2CCCC2)c1=O = 2.72

Go through the list and state CTG-3D luminescence at 96 h for each entry.
1. CC(C)n1nc(-c2ccc3oc(N)nc3c2)c2c(N)ncnc21
2. CCOc1ccn(-c2ccc(F)cc2)c(=O)c1C(=O)Nc1ccc(Oc2ccnc(N)c2Cl)c(F)c1

1. 2.62
2. 2.93

###

Field: CTG-3D luminescence at 96 h. Provide a value for each of the compounds that follow.
Test system: HCI-008 (organoid from a HER2-enriched breast cancer xenograft)
Assay: CTG-3D luminescence at 96 h relative to day-0 seeding control (ratio to day 0); higher = more growth / less cytotoxicity; PDxO 3D drug screen, 96 h, CTG-3D normalised to day-0 seeding control.
Conditions: 10 µM; days in culture: 228

Consider the following illustrative entries.
CC(=O)O[C@H]1C(=O)[C@@]2(C)[C@H]([C@H](OC(=O)c3ccccc3)[C@]3(O)C[C@H](OC(=O)[C@H](O)[C@@H](NC(=O)c4ccccc4)c4ccccc4)C(C)=C1C3(C)C)[C@]1(OC(C)=O)CO[C@@H]1C[C@@H]2O = 0.764
NC(=O)Nc1cc(-c2cccc(F)c2)sc1C(=O)N[C@H]1CCCNC1 = 0.196
CC(C)n1nc(-c2ccc3oc(N)nc3c2)c2c(N)ncnc21 = 0.185

Go through the list and state CTG-3D luminescence at 96 h for each entry.
1. O=C(/C=C/c1cccnc1)NCCCCC1CCN(C(=O)c2ccccc2)CC1
2. CC[C@H](NC(=O)[C@H](C)NC)C(=O)N1C[C@@H](O)C[C@H]1Cc1c(-c2[nH]c3cc(F)ccc3c2C[C@@H]2C[C@H](O)CN2C(=O)[C@H](CC)NC(=O)[C@H](C)NC)[nH]c2cc(F)ccc12
3. NC(=O)c1cccc2cn(-c3ccc([C@@H]4CCCNC4)cc3)nc12
4. COc1cc2c(Oc3ccc4[nH]c(C)cc4c3F)ncnc2cc1OCCCN1CCCC1

1: 0.168; 2: 0.206; 3: 0.828; 4: -0.102
